Measured binding signal of individual entries
Molecular target: T1, RBFOX1 RRM (Homo sapiens, UniProt Q9NWB1 109-208)
T1 sequence: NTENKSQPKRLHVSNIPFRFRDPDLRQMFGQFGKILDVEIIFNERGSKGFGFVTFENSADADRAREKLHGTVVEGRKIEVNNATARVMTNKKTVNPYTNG
Assay: EMSA; HiTS-Eq, 1 nM pool, 10 min; buffer printed only for the single-RNA assays: 10 mM Tris pH 7.5, 150 mM NaCl, 3.4 mM EDTA, 0.001% NP-40, 30 C
Conditions: tags: His6 N-terminal (pET28a); label: 5' 32P
Whole data set: some 16,000 sequences, median “ka relative to ugcaugu” near 0.0091, cut for the highest 2% near 0.032. The full list was thinned out, with the highest values kept by preference.

# Binder, Reported Value
records = [
    ("GGGAUCA (DNA:RNA) RNA: GGGAGACCGGAAUUCAGAUUGUCCGGGAUCAUUAAAUCCCGUCGUAGCCACCA DNA 1: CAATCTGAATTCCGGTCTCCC DNA 2: TGGTGGCTACGACGGGATT", "0.0351 KA relative to UGCAUGU"),
    ("CGGAUCG (DNA:RNA) RNA: GGGAGACCGGAAUUCAGAUUGUCCCGGAUCGUUAAAUCCCGUCGUAGCCACCA DNA 1: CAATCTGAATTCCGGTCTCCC DNA 2: TGGTGGCTACGACGGGATT", "0.0358 KA relative to UGCAUGU"),
    ("GGGAUCC (DNA:RNA) RNA: GGGAGACCGGAAUUCAGAUUGUCCGGGAUCCUUAAAUCCCGUCGUAGCCACCA DNA 1: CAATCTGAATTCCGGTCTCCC DNA 2: TGGTGGCTACGACGGGATT", "0.0157 KA relative to UGCAUGU"),
]

As a next step, examine the binder that follows.
Q: Can you look up the measured binding signal of GGAAUCG (DNA:RNA) RNA: GGGAGACCGGAAUUCAGAUUGUCCGGAAUCGUUAAAUCCCGUCGUAGCCACCA DNA 1: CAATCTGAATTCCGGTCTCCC DNA 2: TGGTGGCTACGACGGGATT for me?
A: 0.0216 KA relative to UGCAUGU
